MEASURED ON: Sigma 2 (Rattus norvegicus)
Sequence (Q5U3Y7 1-176): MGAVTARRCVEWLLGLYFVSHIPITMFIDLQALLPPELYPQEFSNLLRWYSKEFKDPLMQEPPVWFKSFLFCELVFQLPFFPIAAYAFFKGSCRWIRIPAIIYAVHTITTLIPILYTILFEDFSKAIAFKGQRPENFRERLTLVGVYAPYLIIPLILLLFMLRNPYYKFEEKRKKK
CONDITION LABEL: read-out: Sigma 2 Ki; [^3H]-DTG 1 nM, 500 nM pentazocine, crude P2 membrane fraction from rat livers, 50 mM Tris-HCl pH 7.4, 25°C, 2 hours
pKi: −log10 of the molar value. Where a name gives a salt, the structure may show the parent alone.

MOLECULE | pKi
N=c1sc2cc(Cl)ccc2n1CC1CCN(C[C@H](O)c2ccc(F)cc2)CC1 (racemic) [Example 3, dihydrochloride] | 7.46
